Experimental Protocol: Maximum non-lethal dose (NLD), single intravenous dose in mice
Format: in vivo, Swiss-Webster male mice
Test Context: test compounds as aspartate salts in 5% mannitol, AmB as FUNGIZONE
Form field: NLD acute mice (one value per entry).
A number alone suffices; assume mg/kg.

Compound	Unit Name	NLD acute mice
C[C@@H]1[C@H](O)[C@@H](C)/C=C/C=C/C=C/C=C/C=C/C=C/C=C/[C@H](O[C@@H]2O[C@H](C)[C@@H](O)[C@H](N)[C@@H]2O)C[C@@H]2O[C@](O)(C[C@@H](O)C[C@@H](O)[C@H](O)CC[C@@H](O)C[C@@H](O)CC(=O)O[C@H]1C)C[C@H](O)[C@H]2C(=O)O [AMB, amphotericin B, reference compound]	mg/kg	1.5
CCN1CCN(C(=O)C2C3C[C@@H](OC4O[C@H](C)[C@@H](O)[C@H](NC[C@@]5(O)OC[C@@H](O)[C@H](O)[C@@H]5O)[C@@H]4O)/C=C/C=C/C=C/C=C/C=C/C=C/C=C/[C@H](C)[C@@H](O)C(C)[C@H](C)OC(=O)C[C@H](O)C[C@H](O)CC[C@@H](O)[C@H](O)C[C@H](O)C[C@](O)(C[C@@H]2O)O3)CC1 (stereo partly shown)	mg/kg	15
COC(=O)[C@H]1[C@@H]2C[C@@H](O[C@@H]3O[C@H](C)[C@@H](O)[C@H](N)[C@@H]3O)/C=C/C=C/C=C/C=C/C=C/C=C/C=C/[C@H](C)[C@@H](O)[C@@H](C)[C@H](C)OC(=O)C[C@H](O)C[C@H](O)CC[C@@H](O)[C@H](O)C[C@H](O)C[C@](O)(C[C@@H]1O)O2 [AME, amphotericin B methyl ester, reference compound]	mg/kg	60
CC1[C@H](C)OC(=O)C[C@H](O)C[C@H](O)CC[C@@H](O)[C@H](O)C[C@H](O)C[C@]2(O)C[C@H](O)C(C(=O)N3CCN(CCO)CC3)C(C[C@@H](OC3O[C@H](C)[C@@H](O)[C@H](NC[C@@]4(O)OC[C@@H](O)[C@H](O)[C@@H]4O)[C@@H]3O)/C=C/C=C/C=C/C=C/C=C/C=C/C=C/[C@H](C)[C@H]1O)O2 (stereo partly shown)	mg/kg	10

*Q* Reported NLD acute mice, compound CC1[C@H](C)OC(=O)C[C@H](O)C[C@H](O)CC[C@@H](O)[C@H](O)C[C@H](O)C[C@]2(O)C[C@H](O)C(C(=O)NCCCN3CCOCC3)C(C[C@@H](OC3O[C@H](C)[C@@H](O)[C@H](NC[C@@]4(O)OC[C@@H](O)[C@@H](O)[C@@H]4O)[C@@H]3O)/C=C/C=C/C=C/C=C/C=C/C=C/C=C/[C@H](C)[C@H]1O)O2 (stereo partly shown) : ____
*A* 20

*Q* Fill in the blank: the reported NLD acute mice of CC1[C@H](C)OC(=O)C[C@H](O)C[C@H](O)CC[C@@H](O)[C@H](O)C[C@H](O)C[C@]2(O)C[C@H](O)C(C(=O)N[C@H]3C(O)O[C@H](CO)[C@H](O)[C@@H]3O)C(C[C@@H](OC3O[C@H](C)[C@@H](O)[C@H](N)[C@@H]3O)/C=C/C=C/C=C/C=C/C=C/C=C/C=C/[C@H](C)[C@H]1O)O2 (stereo partly shown) is ____.
*A* 16

*Q* If you can, please state the reported NLD acute mice value of CC1[C@H](C)OC(=O)C[C@H](O)C[C@H](O)CC[C@@H](O)[C@H](O)C[C@H](O)C[C@]2(O)C[C@H](O)C(C(=O)N3CCOCC3)C(C[C@@H](OC3O[C@H](C)[C@@H](O)[C@H](NC[C@@]4(O)OC[C@@H](O)[C@H](O)[C@@H]4O)[C@@H]3O)/C=C/C=C/C=C/C=C/C=C/C=C/C=C/[C@H](C)[C@H]1O)O2 (stereo partly shown) .
*A* 5

*Q* Need NLD acute mice of CC1[C@H](C)OC(=O)C[C@H](O)C[C@H](O)CC[C@@H](O)[C@H](O)C[C@H](O)C[C@]2(O)C[C@H](O)C(C(=O)N[C@H]3C(O)O[C@H](CO)[C@@H](O)[C@@H]3O)C(C[C@@H](OC3O[C@H](C)[C@@H](O)[C@H](N)[C@@H]3O)/C=C/C=C/C=C/C=C/C=C/C=C/C=C/[C@H](C)[C@H]1O)O2 (stereo partly shown) , thanks.
*A* 32
